compounds and their reported IC50
tested on: human T-lymphocyte cells (CEM); experiment: cell proliferation, Coulter counter, CEM; type: cell-based; settings: 96 h, cells counted in a Coulter counter

smiles_structure | IC50
Cc1cc(=O)oc2cc(-n3cc(-c4cccc(-c5cn(-c6ccc7c(C)cc(=O)oc7c6)nn5)c4)nn3)ccc12 | > 100 µM
Cc1cc(=O)oc2cc(-n3cc(CSc4nc5ccccc5[nH]4)nn3)ccc12 | 74 µM
Cc1cc(=O)oc2cc(-n3cc(CSc4nc5ccccc5s4)nn3)ccc12 | ≥ 100 µM
Cc1cc(=O)oc2cc(-n3cc(-c4ccc(-c5cn(-c6ccc7c(C)cc(=O)oc7c6)nn5)cc4)nn3)ccc12 | > 100 µM
Cc1cc(=O)oc2cc(-n3cc(-c4ccc(N(C)C)cc4)nn3)ccc12 | 58 µM
Cc1cc(=O)oc2cc(-n3cc(-c4ccccc4)nn3)ccc12 | > 100 µM
Cc1cc(=O)oc2cc(-n3cc(-c4ccc(N)cc4)nn3)ccc12 | > 100 µM
